# studySystem: HUVEC IL-4 receptor (IL-4Rα/γ-like receptor component) (human, UniProt P24394 26-825)
# Sequence (P24394 26-825): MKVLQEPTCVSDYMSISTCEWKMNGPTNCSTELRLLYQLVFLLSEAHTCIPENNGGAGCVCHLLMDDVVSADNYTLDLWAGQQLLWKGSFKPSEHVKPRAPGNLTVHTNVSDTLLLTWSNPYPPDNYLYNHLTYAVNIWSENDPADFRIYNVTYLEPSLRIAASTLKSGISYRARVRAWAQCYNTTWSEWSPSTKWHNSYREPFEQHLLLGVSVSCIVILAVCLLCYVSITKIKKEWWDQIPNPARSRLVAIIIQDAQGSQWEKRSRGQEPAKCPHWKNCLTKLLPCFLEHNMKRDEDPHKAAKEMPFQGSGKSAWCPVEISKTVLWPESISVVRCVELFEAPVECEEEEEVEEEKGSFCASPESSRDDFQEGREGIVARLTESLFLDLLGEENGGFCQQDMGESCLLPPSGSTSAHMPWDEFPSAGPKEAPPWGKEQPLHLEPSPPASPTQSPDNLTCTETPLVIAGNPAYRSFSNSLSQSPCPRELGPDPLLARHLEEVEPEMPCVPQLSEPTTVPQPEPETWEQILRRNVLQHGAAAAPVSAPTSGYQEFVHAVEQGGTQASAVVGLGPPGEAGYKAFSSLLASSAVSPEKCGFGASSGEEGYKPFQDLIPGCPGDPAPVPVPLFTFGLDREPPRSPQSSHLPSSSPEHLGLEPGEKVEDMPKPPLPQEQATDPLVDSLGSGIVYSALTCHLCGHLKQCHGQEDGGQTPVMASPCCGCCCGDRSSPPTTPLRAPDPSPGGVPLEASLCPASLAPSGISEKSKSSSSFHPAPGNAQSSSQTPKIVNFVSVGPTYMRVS
# assayProcedure: cell-based or functional assay
measuredQuantity: HUVEC, IL-6 secretion, EC50, pM (pM)

1) IL-4 mutein Y124R (ligand) HKCDITLQEIIKTLNSLTEQKTLCTELTVTDIFAASKNTTEKETFCRAATVLRQFYSHHEKDTRCLGATAQQFHRHKQLIRFLKRLDRNLWGLAGLNSCPVKEANQSTLENFLERLKTIMREKRSKCSS: 250
2) IL-4 mutein R121H (ligand) HKCDITLQEIIKTLNSLTEQKTLCTELTVTDIFAASKNTTEKETFCRAATVLRQFYSHHEKDTRCLGATAQQFHRHKQLIRFLKRLDRNLWGLAGLNSCPVKEANQSTLENFLERLKTIMHEKYSKCSS: 40
3) IL-4 mutein R121A (ligand) HKCDITLQEIIKTLNSLTEQKTLCTELTVTDIFAASKNTTEKETFCRAATVLRQFYSHHEKDTRCLGATAQQFHRHKQLIRFLKRLDRNLWGLAGLNSCPVKEANQSTLENFLERLKTIMAEKYSKCSS: 20

[a] IL-4 mutein R121W (ligand) HKCDITLQEIIKTLNSLTEQKTLCTELTVTDIFAASKNTTEKETFCRAATVLRQFYSHHEKDTRCLGATAQQFHRHKQLIRFLKRLDRNLWGLAGLNSCPVKEANQSTLENFLERLKTIMWEKYSKCSS
[b] IL-4 mutein R121T (ligand) HKCDITLQEIIKTLNSLTEQKTLCTELTVTDIFAASKNTTEKETFCRAATVLRQFYSHHEKDTRCLGATAQQFHRHKQLIRFLKRLDRNLWGLAGLNSCPVKEANQSTLENFLERLKTIMTEKYSKCSS
Challenge: // compare: a vs b , metric HUVEC, IL-6 secretion, EC50, pM, want the smaller Return value: the label identifying the chosen record.
Response given: b

[P] IL-4 mutein R121K (ligand) HKCDITLQEIIKTLNSLTEQKTLCTELTVTDIFAASKNTTEKETFCRAATVLRQFYSHHEKDTRCLGATAQQFHRHKQLIRFLKRLDRNLWGLAGLNSCPVKEANQSTLENFLERLKTIMKEKYSKCSS
[Q] IL-4 mutein Y124T (ligand) HKCDITLQEIIKTLNSLTEQKTLCTELTVTDIFAASKNTTEKETFCRAATVLRQFYSHHEKDTRCLGATAQQFHRHKQLIRFLKRLDRNLWGLAGLNSCPVKEANQSTLENFLERLKTIMREKTSKCSS
Challenge: Lab log: flag the item ( P or Q ) with the smaller HUVEC, IL-6 secretion, EC50, pM figure. The response must carry the label of the picked entry.
Response given: P
(P: 100 pM, Q: 350 pM)
